Before we begin, note that these IC50 values for RAC-alpha serine/threonine-protein kinase (Homo sapiens, UniProt P31749) originate from several publications.
I only need the number, in nM, no unit after it.

// worked examples, IC50 included
Entry CNC(=O)Nc1ccc(CNc2ncsc2C(=O)Nc2ccc3c(c2)OC(F)(F)O3)cn1 — recorded IC50 = 24

Entry CN(C)CCn1cc(-c2ccc(F)c(C(F)(F)F)c2)nc1C1CCN(c2ncnc3c2C(C)(C)C(=O)N3)CC1 — recorded IC50 = 52.2

Entry Nc1nnc(-c2cnc(-c3ccc(CN4CCC(n5c(=O)[nH]c6ncccc65)CC4)cc3)c(-c3ccccc3)c2)s1 — recorded IC50 = 434

Entry Nc1nnc(-c2cnc(-c3ccc(CN4CCC(c5n[nH]c(-c6ccccn6)n5)CC4)cc3)c(-c3ccccc3)c2)s1 — recorded IC50 = 85

---
Entry Nc1ncnc2c1cnn2C1CCN(Cc2ccc(-c3ncc(-c4ccccn4)cc3-c3ccccc3)cc2)CC1 — recorded IC50 = 1630

Entry CNC(=O)Nc1ccc(CNc2c(C(=O)Nc3ccc(SC(F)(F)F)cc3)cnn2C)cn1 — recorded IC50 = 15
